biological target: Cannabinoid receptor 1 (Homo sapiens, UniProt P21554); assay: Displacement of [3H]-CP55940 from human recombinant CB1 receptor expressed in CHO cells membrane at 1 uM by scintillation counting; type: cell membranes
Sequence (P21554 whole entry): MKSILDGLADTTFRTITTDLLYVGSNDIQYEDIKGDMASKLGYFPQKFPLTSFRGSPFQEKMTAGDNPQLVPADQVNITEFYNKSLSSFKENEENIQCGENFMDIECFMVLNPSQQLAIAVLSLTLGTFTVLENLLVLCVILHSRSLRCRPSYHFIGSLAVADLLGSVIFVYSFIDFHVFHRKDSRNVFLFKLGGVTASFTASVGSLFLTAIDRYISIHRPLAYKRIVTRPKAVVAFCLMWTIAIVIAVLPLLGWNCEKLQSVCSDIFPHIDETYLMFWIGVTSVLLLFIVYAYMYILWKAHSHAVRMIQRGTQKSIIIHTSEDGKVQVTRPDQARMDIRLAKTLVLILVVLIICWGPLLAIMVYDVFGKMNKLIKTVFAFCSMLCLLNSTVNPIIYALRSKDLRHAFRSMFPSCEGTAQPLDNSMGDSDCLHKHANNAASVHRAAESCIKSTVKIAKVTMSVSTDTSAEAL
Can you tell me Activity for the items I'm about to list?

Some solved entries appear below for comparison.
{"Molecule": "CCCCCn1cc(C(=O)NC23CC4CC(CC(C4)C2)C3)c(=O)c(-c2ccccc2)c1C", "Activity": "> 60%"}
{"Molecule": "Cc1cc(=O)c(C(=O)NC23CC4CC(CC(C4)C2)C3)cn1CCC1CCOCC1", "Activity": "> 60%"}
{"Molecule": "CCCCCn1cc(C(=O)NN2CCCCC2)c(=O)cc1C", "Activity": "> 60%"}
{"Molecule": "CCCCCn1cc(C(=O)NC2C3CC4CC(C3)CC2C4)c(=O)cc1C (centres undefined)", "Activity": "> 60%"}
{"Molecule": "Cc1cc(=O)c(C(=O)NC23CC4CC(CC(C4)C2)C3)cn1CCCC(F)(F)F", "Activity": "> 60%"}
{"Molecule": "CCCCCn1cc(C(=O)NC2C3CC4CC(C3)CC2C4)c(=O)cc1C(C)(C)C (centres undefined)", "Activity": "> 60%"}

Batch of 3 molecules: report Activity for each.
1. CCCCCn1cc(C(=O)NC23CC4CC(CC(C4)C2)C3)c(=O)c(I)c1C
2. CCCCCn1cc(C(=O)NCC23CC4CC(CC(C4)C2)C3)c(=O)cc1C
3. CCCCCn1cc(C(=O)Nc2ccccc2)c(=O)cc1C(C)(C)C

["> 60%", "> 60%", "> 60%"]
